- EXPERIMENTAL_SYSTEM: Acetylcholinesterase (Electrophorus electricus, UniProt O42275)
- Sequence (O42275 whole entry): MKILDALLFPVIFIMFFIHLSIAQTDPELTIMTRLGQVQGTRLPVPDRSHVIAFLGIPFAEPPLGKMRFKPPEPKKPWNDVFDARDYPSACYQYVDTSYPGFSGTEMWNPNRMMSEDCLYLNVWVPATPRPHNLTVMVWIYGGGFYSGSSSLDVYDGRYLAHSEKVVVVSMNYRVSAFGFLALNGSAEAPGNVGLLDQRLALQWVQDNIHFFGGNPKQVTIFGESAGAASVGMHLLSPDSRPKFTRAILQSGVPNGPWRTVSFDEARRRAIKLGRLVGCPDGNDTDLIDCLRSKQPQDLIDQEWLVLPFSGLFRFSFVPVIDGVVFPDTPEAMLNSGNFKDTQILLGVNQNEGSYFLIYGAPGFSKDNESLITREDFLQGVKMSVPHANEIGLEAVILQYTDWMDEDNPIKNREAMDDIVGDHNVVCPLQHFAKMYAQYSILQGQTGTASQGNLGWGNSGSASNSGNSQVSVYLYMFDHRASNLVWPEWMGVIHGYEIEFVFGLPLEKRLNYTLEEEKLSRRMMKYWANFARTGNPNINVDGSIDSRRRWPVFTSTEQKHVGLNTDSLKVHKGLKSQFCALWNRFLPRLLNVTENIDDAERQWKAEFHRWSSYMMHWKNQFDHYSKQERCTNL
Label 1 when IC50 is strictly below 100 nM; otherwise label -1.

Q: Could you please tell me whether IC50 recorded for [Br-].[Br-].c1ccc2c(c1)[nH]c1c[n+](CCCCCCCCCC[n+]3ccc4c(c3)[nH]c3ccccc34)ccc12 is less than 100 nM?
Result: 1

Q: Could you please tell me whether IC50 recorded for [Br-].[Br-].c1ccc2c(c1)[nH]c1c[n+](Cc3ccc(C[n+]4ccc5c(c4)[nH]c4ccccc45)cc3)ccc12 is less than 100 nM?
Result: -1

Q: Could you please tell me whether IC50 recorded for CNC1(c2ccccc2Cl)CCCCC1=O (centres undefined) is less than 100 nM?
Result: -1

Q: Could you please tell me whether IC50 recorded for [Br-].[Br-].c1ccc2c(c1)[nH]c1c[n+](CCCCCCCCCCCC[n+]3ccc4c(c3)[nH]c3ccccc34)ccc12 is less than 100 nM?
Result: 1

Q: Could you please tell me whether IC50 recorded for [Br-].[Br-].c1ccc2c(c1)[nH]c1c[n+](CCOCCOCCOCC[n+]3ccc4c(c3)[nH]c3ccccc34)ccc12 is less than 100 nM?
Result: -1

Q: Could you please tell me whether IC50 recorded for [Br-].[Br-].c1ccc2c(c1)[nH]c1c[n+](CCCC[n+]3ccc4c(c3)[nH]c3ccccc34)ccc12 is less than 100 nM?
Result: -1

Q: Could you please tell me whether IC50 recorded for c1ccc2c(c1)c1ccncc1n2CCCCCCCCCCCCn1c2ccccc2c2ccncc21 is less than 100 nM?
Result: -1

Q: Could you please tell me whether IC50 recorded for c1cc[n+](CCCCCC[n+]2ccccc2)cc1 is less than 100 nM?
Result: -1

Q: Could you please tell me whether IC50 recorded for CCC[n+]1ccc2c(c1)[nH]c1ccccc12 is less than 100 nM?
Result: -1

Q: Could you please tell me whether IC50 recorded for [Br-].[Br-].c1ccc2c(c1)[nH]c1c[n+](CCCCCCC[n+]3ccc4c(c3)[nH]c3ccccc34)ccc12 is less than 100 nM?
Result: 1

Q: Could you please tell me whether IC50 recorded for [Br-].[Br-].c1ccc2c(c1)[nH]c1c[n+](CC[n+]3ccc4c(c3)[nH]c3ccccc34)ccc12 is less than 100 nM?
Result: -1

Q: Could you please tell me whether IC50 recorded for [Br-].[Br-].c1ccc2c(c1)[nH]c1c[n+](CCCCCCCC[n+]3ccc4c(c3)[nH]c3ccccc34)ccc12 is less than 100 nM?
Result: -1

Q: Could you please tell me whether IC50 recorded for [Br-].[Br-].c1ccc2c(c1)[nH]c1c[n+](CCC[n+]3ccc4c(c3)[nH]c3ccccc34)ccc12 is less than 100 nM?
Result: -1

Q: Could you please tell me whether IC50 recorded for [Br-].[Br-].c1ccc2c(c1)[nH]c1c[n+](CCCCCCCCC[n+]3ccc4c(c3)[nH]c3ccccc34)ccc12 is less than 100 nM?
Result: -1

Q: Could you please tell me whether IC50 recorded for [Br-].[Br-].c1ccc2c(c1)[nH]c1c[n+](CCCCCCCCCCC[n+]3ccc4c(c3)[nH]c3ccccc34)ccc12 is less than 100 nM?
Result: 1

Q: Could you please tell me whether IC50 recorded for COc1ccc2[nH]c3c[n+](CCCCC[n+]4ccc5c(c4)[nH]c4ccc(OC)cc45)ccc3c2c1.[Br-].[Br-] is less than 100 nM?
Result: -1

Q: Could you please tell me whether IC50 recorded for Oc1ccc2[nH]c3c[n+](CCCCC[n+]4ccc5c(c4)[nH]c4ccc(O)cc45)ccc3c2c1.[Br-].[Br-] is less than 100 nM?
Result: -1

Q: Could you please tell me whether IC50 recorded for [Br-].[Br-].c1ccc2c(c1)[nH]c1c[n+](CCCCC[n+]3ccc4c(c3)[nH]c3ccccc34)ccc12 is less than 100 nM?
Result: -1

Q: Could you please tell me whether IC50 recorded for C[n+]1ccc2c3ccccc3n(CCCCCCCCCCCCn3c4ccccc4c4cc[n+](C)cc43)c2c1.[I-].[I-] is less than 100 nM?
Result: 1
